Tested on: coxsackievirus B3 (CVB3-GFP)
Type: cell-based
Details: HeLa cells, GFP-positive cells within RFP-positive gate, replicate R1
MEASURED_ENDPOINT: Percent Infected R1 (%)
Field format: number, assumed %, no unit text.

ZNRF1: human RING type E3 ligase expressed from lentiviral vector (protein, UniProt Q8ND25 2-227, looked up, lentiviral expression, human RING type E3 ligase expressed from lentiviral vector) E3 ubiquitin-protein ligase …: GGKQSTAARSRGPFPGVSTDDSAVPPPGGAPHFGHYRTGGGAMGLRSRSVSSVAGMGMDPSTAGGVPFGLYTPASRGTGDSERAPGGGGSASDSTYAHGNGYQETGGGHHRDGMLYLGSRASLADALPLHIAPRWFSSHSGFKCPICSKSVASDEMEMHFIMCLSKPRLSYNDDVLTKDAGECVICLEELLQGDTIARLPCLCIYHKSCIDSWFEVNRSCPEHPAD; 95.8
RNF144A: human RING type E3 ligase expressed from lentiviral vector (protein, UniProt P50876 1-292, looked up) E3 ubiquitin-protein ligase …: MTTTRYRPTWDLALDPLVSCKLCLGEYPVEQMTTIAQCQCIFCTLCLKQYVELLIKEGLETAISCPDAACPKQGHLQENEIECMVAAEIMQRYKKLQFEREVLFDPCRTWCPASTCQAVCQLQDVGLQTPQPVQCKACRMEFCSTCKASWHPGQGCPETMPITFLPGETSAAFKMEEDDAPIKRCPKCKVYIERDEGCAQMMCKNCKHAFCWYCLESLDDDFLLIHYDKGPCRNKLGHSRASVIWHRTQVVGIFAGFGLLLLVASPFLLLATPFVLCCKCKCSKGDDDPLPT; 97.7

Which Percent Infected R1 value belongs to RNF182: human RING type E3 ligase expressed from lentiviral vector (protein, UniProt Q8N6D2 1-247, looked up) E3 ubiquitin-protein ligase …: MASQPPEDTAESQASDELECKICYNRYNLKQRKPKVLECCHRVCAKCLYKIIDFGDSPQGVIVCPFCRFETCLPDDEVSSLPDDNNILVNLTCGGKGKKCLPENPTELLLTPKRLASLVSPSHTSSNCLVITIMEVQRESSPSLSSTPVVEFYRPASFDSVTTVSHNWTVWNCTSLLFQTSIRVLVWLLGLLYFSSLPLGIYLLVSKKVTLGVVFVSLVPSSLVILMVYGFCQCVCHEFLDCMAPPS ?
97.9

Which Percent Infected R1 value belongs to MARCH2: human RING type E3 ligase expressed from lentiviral vector (protein, UniProt Q9P0N8 1-246, looked up) E3 ubiquitin-protein ligase …: MTTGDCCHLPGSLCDCSGSPAFSKVVEATGLGPPQYVAQVTSRDGRLLSTVIRALDTPSDGPFCRICHEGANGECLLSPCGCTGTLGAVHKSCLEKWLSSSNTSYCELCHTEFAVEKRPRPLTEWLKDPGPRTEKRTLCCDMVCFLFITPLAAISGWLCLRGAQDHLRLHSQLEAVGLIALTIALFTIYVLWTLVSFRYHCQLYSEWRKTNQKVRLKIREADSPEGPQHSPLAAGLLKKVAEETPV ?
92.4

Reference source for all entries: patent US12104181B2
